Hi there, I'd appreciate the recorded upper left quadrant, percent of cells AF647+ / hTcRβ-PerCP- for every entry that follows.
Molecular target: T1, human CD3e (T-cell surface glycoprotein CD3 epsilon chain) (human, UniProt P07766 23-207)
T1 construct: Target of the anti-hCD3e antibodies on human PBMC, Jurkat cells and cells expressing human CD3e; on T cells it is part of the CD3/TCR complex; also called hCD3e; CD3e on human PBMC
Assay: flow cytometry, human PBMC, antibody 1 µg/mL, anti-human IgG Fc-Alexa Fluor647 (1:500), anti-hTcRβ-PerCP (1:30)
Procedure: PBMC cells were collected from a human subject. After being thawed, the cells were cultured for 3-4 hours. The medium was then discarded, and the cells were resuspended in phosphate-buffered saline (PBS). The cell concentration was then adjusted to 2×10⁶/25 μl PBS. A 96-well plate was prepared. 25 ul of cell suspension was added to each well. […] The cells and the antibodies were incubated. After centrifuge, the residues were discarded. The samples were washed again. […]
Numeric answer only, unit % assumed.

-- ask Return upper left quadrant, percent of cells AF647+ / hTcRβ-PerCP- for the following binder: 1B1-H1K1-IgG1-LALA (antibody, V domains shown, Humanized; human IgG1 with LALA mutations; also called H1K1 (humanized 1B1)) VH: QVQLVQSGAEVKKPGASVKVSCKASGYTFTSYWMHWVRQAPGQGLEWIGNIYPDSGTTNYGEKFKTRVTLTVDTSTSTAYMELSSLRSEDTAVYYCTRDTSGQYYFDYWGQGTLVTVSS VL: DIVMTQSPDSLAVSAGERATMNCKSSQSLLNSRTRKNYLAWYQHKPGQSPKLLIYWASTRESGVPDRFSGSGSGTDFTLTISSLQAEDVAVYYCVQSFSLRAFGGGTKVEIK
-- reply 12

-- ask Return upper left quadrant, percent of cells AF647+ / hTcRβ-PerCP- for the following binder: 1B1-H1K3-IgG1-LALA (antibody, V domains shown, Humanized; human IgG1 with LALA mutations; also called H1K3 (humanized 1B1)) VH: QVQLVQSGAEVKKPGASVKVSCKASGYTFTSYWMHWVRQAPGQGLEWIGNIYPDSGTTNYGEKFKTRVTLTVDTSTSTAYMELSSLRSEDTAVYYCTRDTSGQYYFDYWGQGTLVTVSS VL: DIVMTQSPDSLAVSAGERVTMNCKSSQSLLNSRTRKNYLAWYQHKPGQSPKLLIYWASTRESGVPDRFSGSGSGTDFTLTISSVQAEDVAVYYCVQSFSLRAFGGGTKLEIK
-- reply 11

-- ask Return upper left quadrant, percent of cells AF647+ / hTcRβ-PerCP- for the following binder: 1B1-H2K2-IgG1-LALA (antibody, V domains shown, Humanized; human IgG1 with LALA mutations; also called H2K2 (humanized 1B1)) VH: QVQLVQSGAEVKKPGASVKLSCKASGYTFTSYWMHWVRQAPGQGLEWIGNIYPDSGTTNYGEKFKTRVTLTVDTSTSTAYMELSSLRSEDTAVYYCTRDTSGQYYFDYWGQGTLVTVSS VL: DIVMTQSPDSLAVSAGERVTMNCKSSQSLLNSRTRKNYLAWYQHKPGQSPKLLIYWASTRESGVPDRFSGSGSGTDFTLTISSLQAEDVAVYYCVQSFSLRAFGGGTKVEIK
-- reply 10.2

-- ask Return upper left quadrant, percent of cells AF647+ / hTcRβ-PerCP- for the following binder: 1B1-H3K2-IgG1-LALA (antibody, V domains shown, Humanized; human IgG1 with LALA mutations; also called H3K2 (humanized 1B1)) VH: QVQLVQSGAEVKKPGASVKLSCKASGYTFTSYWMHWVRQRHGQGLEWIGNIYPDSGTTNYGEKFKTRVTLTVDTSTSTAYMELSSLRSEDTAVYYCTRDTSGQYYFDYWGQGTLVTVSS VL: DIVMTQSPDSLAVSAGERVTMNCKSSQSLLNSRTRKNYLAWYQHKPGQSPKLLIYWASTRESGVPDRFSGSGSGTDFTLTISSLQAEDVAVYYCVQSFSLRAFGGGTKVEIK
-- reply 11.4

-- ask Return upper left quadrant, percent of cells AF647+ / hTcRβ-PerCP- for the following binder: 1B1-H4K1-IgG1-LALA (antibody, V domains shown, Humanized; human IgG1 with LALA mutations; also called H4K1 (humanized 1B1)) VH: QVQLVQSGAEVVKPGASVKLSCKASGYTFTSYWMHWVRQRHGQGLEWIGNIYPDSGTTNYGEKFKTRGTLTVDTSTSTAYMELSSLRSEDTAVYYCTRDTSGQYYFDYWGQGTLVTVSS VL: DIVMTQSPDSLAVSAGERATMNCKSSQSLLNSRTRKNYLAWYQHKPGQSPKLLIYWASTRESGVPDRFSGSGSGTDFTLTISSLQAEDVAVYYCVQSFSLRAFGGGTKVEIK
-- reply 10.2
